Known CC50 of a selection of compounds
# assay overview: MTS signal (cell metabolism/viability)
# Type: cell-based, Murine
# condition context: mouse, murine macrophages; concentration required to diminish the MTS signal by 50%; read-out: Average TC50
# Method: Murine macrophages were treated with LPS in the presence of various exemplary compounds described above. Subsequently, the cells were harvested and the transcripts for IL-6, iNOS, and INF-β quantified via rt-PCR. IC50 is the concentration of the compounds required to inhibit 50% of the mRNA transcripts induced by LPS. TC50 is the concentration of the compounds required to diminish the MTS signal by 50% (MTS signal correlates with cell metabolism/viability). […]
Return type: number; implicit unit µM.

Sample records with CC50:
>  <compound>
Oc1cccc(C2(O)CSC(=S)N2Cc2cccnc2)c1 (stereo not shown) [COB-198]

>  <CC50 / µM>
17

$$$$
>  <compound>
Cn1c(-c2cccc(Cl)c2)c[nH]c1=S [COB-119]

>  <CC50 / µM>
390

$$$$
>  <compound>
CCCN1C(=S)SCC1(O)c1ccc(Cl)c(Cl)c1 (stereo not shown) [COB-210]

>  <CC50 / µM>
45

$$$$

Please find the next compound below.
Report CC50 for COc1ccc(F)cc1C1(O)CSC(=S)N1Cc1cccnc1 (stereo not shown) [COB-225] please. 65
